protocolSummary: Pharmacokinetic study in SD male rats
Format: in vivo
experimentalSetup: rat, plasma, intravenous bolus 1.0 mg/kg, read-out: Vss iv (volume of distribution)
# maps each entry to its log10(Vd)
Units before log transform: L/kg; reported quantity: Vd; transform: log10.

**Q:** Could you share which log10(Vd) value was measured for CC#Cc1ccc(-c2nnc(N[C@@H]3CCCN(C)C3)cc2C)c(O)c1 [Compound 174] ?
**A:** 0.68

====

clearance by entry:
protocolSummary: Pharmacokinetic study in SD male rats
Format: in vivo
experimentalSetup: rat, plasma, intravenous bolus 1.0 mg/kg, read-out: Cl—obs iv (clearance rate) (converted)
Return type: number; implicit unit mL/min/kg.

// solved cases for clearance follow
structureString	clearance (mL/min/kg)
C#Cc1ccc(-c2nnc(N[C@@H]3CCCN(C)C3)cc2C2CC2)c(O)c1	14.3
C#Cc1ccc(-c2nnc(N[C@@H]3CCCN(C)C3)cc2C)c(O)c1	20.2
CC#Cc1ccc(-c2nnc(N[C@@H]3CCCN(C)C3)cc2C2CC2)c(O)c1	17.5
CC#Cc1ccc(-c2nnc(N[C@@H]3CCCN(C)C3)cc2C)c(O)c1	18.2

Now for a further molecule.
**Q:** Entry `C#Cc1ccc(-c2nnc(N[C@H]3C[C@@](C)(O)C3)cc2C)c(O)c1` : reported clearance = ?
**A:** 3.17

====

measurementTarget: hERG potassium ion channel (Homo sapiens)
Sequence (Q12809 whole entry): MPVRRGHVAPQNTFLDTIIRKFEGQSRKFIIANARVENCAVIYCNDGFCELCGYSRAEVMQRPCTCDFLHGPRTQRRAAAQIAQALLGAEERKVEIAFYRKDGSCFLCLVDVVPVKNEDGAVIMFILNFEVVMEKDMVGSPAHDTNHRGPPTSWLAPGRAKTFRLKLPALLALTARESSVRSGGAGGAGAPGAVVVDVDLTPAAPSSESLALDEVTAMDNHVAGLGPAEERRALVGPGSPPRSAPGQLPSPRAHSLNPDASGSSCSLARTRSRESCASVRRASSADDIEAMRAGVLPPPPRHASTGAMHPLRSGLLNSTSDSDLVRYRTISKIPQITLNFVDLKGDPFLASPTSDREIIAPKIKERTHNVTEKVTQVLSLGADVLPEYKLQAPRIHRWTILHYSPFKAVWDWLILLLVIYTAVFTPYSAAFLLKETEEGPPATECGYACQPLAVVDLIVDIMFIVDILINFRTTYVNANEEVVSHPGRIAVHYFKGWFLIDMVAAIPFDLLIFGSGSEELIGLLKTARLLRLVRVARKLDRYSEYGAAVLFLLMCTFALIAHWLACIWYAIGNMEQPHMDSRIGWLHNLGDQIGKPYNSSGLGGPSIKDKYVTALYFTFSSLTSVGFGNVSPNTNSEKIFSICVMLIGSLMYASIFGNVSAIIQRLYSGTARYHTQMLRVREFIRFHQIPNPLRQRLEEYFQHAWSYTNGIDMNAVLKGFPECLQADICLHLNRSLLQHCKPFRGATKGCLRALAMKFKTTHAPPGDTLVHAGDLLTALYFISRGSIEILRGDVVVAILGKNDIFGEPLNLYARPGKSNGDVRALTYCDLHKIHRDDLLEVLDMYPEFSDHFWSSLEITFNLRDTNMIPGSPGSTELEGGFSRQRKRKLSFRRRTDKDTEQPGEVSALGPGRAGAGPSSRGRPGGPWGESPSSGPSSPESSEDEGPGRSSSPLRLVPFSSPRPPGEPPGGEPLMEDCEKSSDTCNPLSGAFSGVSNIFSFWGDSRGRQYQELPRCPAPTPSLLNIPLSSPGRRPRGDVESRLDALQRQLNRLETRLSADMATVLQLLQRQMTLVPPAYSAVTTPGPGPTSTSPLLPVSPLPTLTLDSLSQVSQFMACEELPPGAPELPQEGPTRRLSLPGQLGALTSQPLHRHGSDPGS
protocolSummary: Inhibition of hERG potassium ion channels, manual patch-clamp in HEK-293 cells
experimentalSetup: HEK-293 cells stably expressing hERG, whole-cell manual patch-clamp, room temperature
pIC50: −log10 of the molar value.
readoutLabel: pIC50

**Q:** Lab request: please report pIC50 under test system hERG potassium ion channel (Homo sapiens) for `C#Cc1ccc(-c2nnc(N[C@@H]3CCCN(C)C3)cc2C)c(O)c1`
**A:** < 5.00

====

protocolSummary: Pharmacokinetic study in C57BL/6J mice
Type: in vivo
experimentalSetup: mouse, plasma, po; C57BL/6J female mice, gavage 10 mg/kg; read-out: AUClast po (area under the drug-time curve for 0-24 h)
Catalogue of log10(AUC(0-t)) values
Please note: log10 values; quantity AUC(0-t); unit ng·h/mL.

A selection of reference data follows.
structureString	log10(AUC(0-t))
C#Cc1ccc(-c2nnc(N[C@@H]3CCCN(C)C3)c3ccccc23)c(O)c1	4.00
CC#Cc1ccc(-c2nnc(N[C@@H]3CCCN(C)C3)nc2C)c(O)c1	3.90
CC#Cc1ccc(-c2nnc(N[C@@H]3CCCN(C)C3)cc2C)c(O)c1	4.30
C#Cc1ccc(-c2nnc(N[C@@H]3CCCN(C)C3)c3c2CCCC3)c(O)c1	3.28
C#Cc1ccc(-c2nnc(N[C@@H]3CCCN(C)C3)nc2C2CC2)c(O)c1	3.59
C#Cc1ccc(-c2nnc(N[C@@H]3CCCN(CCO)C3)cc2C)c(O)c1	3.84

# next compound below
**Q:** If you can, please state the reported log10(AUC(0-t)) value of `C#Cc1ccc(-c2nnc(N[C@@H]3CCCN(C)C3)cc2C)c(O)c1` .
**A:** 3.62

====

Below, each of the molecules is paired with its reported Cmax value.
protocolSummary: Pharmacokinetic study in SD male rats
Assay type: in vivo
experimentalSetup: rat, plasma, po, gavage 5.0 mg/kg, read-out: Cmax po (peak concentration)
Method: Experimental Example 3: Pharmacokinetic Study of Compounds in SD Male Rats […] The results of the concentrations of the compounds under test were output using Analyst 1.6.3 of AB. Parameters such as mean, standard deviation, coefficient of variation was calculated by Microsoft Excel (parameters directly output by Analyst 1.6.3 needed no calculation), and PK parameters were calculated by WinNonlin Phenoix 8.2 software NCA (Tmax as the median).
Give your result in ng/mL as a bare value.

Examples from the recorded data:
molecule	unitInfo	Cmax
CC#Cc1ccc(-c2nnc(N[C@@H]3CCCN(C)C3)cc2C)c(O)c1 [Compound 174]	ng/mL	465
CC#Cc1ccc(-c2nnc(N[C@@H]3CCCN(C)C3)cc2C2CC2)c(O)c1 [Compound 264]	ng/mL	230
C#Cc1ccc(-c2nnc(N[C@H]3C[C@@](C)(O)C3)cc2C)c(O)c1 [Compound 55]	ng/mL	3050

**Q:** Could you tell me which Cmax is on file for C#Cc1ccc(-c2nnc(N[C@@H]3CCCN(C)C3)cc2C2CC2)c(O)c1 [Compound 173] ?
**A:** 395

**Q:** For C#Cc1ccc(-c2nnc(N[C@@H]3CCCN(C)C3)cc2C)c(O)c1 [Compound 54] then?
**A:** 442
